Assay: Drug level in rat plasma at 10 mg/kg, po
Type: ADME, organism-based
Design: dose 10 mg/kg, route oral
ENDPOINT LABEL: Cmax

Item: `CNCc1cc(C(=O)N2CCN(C3CC3)CC2)ccc1Oc1ccc(Cl)c(Cl)c1` | Cmax: > 1000 nM

----------
Test: Clearance in rat
Format: ADME, organism-based
Conditions: in vivo
ENDPOINT LABEL: clearance

Item: `CNCc1cc(C(=O)N2CCN(C3CC3)CC2)ccc1Oc1ccc(Cl)c(Cl)c1` | clearance: 10.2 mL/min/kg

----------
Assay: Volume of distribution at steady state in rat
Format: ADME, organism-based
Settings: in vivo, read-out: Vdss
ENDPOINT LABEL: Vd (L/kg)
Express it in L/kg; write the number only.

Item: `CNCc1cc(C(=O)N2CCN(C3CC3)CC2)ccc1Oc1ccc(Cl)c(Cl)c1` | Vd: 13

----------
Assay: Bioavailability in rat
Assay type: ADME, organism-based
Conditions: in vivo
ENDPOINT LABEL: bioavailability (%)
Express it in %; write the number only.

Item: `CNCc1cc(C(=O)N2CCN(C3CC3)CC2)ccc1Oc1ccc(Cl)c(Cl)c1` | bioavailability: 93

----------
Assay: Half life in iv dosed rat
Assay type: ADME, organism-based
Conditions: in vivo
ENDPOINT LABEL: half-life

Item: `CNCc1cc(C(=O)N2CCN(C3CC3)CC2)ccc1Oc1ccc(Cl)c(Cl)c1` | half-life: 16.1 h
